Readings of inhibition at 20 µM for the listed compounds
- testedSystem: CAT1 (cationic amino acid transporter 1, CAT1/SLC7A1) (Homo sapiens, UniProt P30825)
- Construct: full-length human transporter stably transfected in HEK cells (HEK-CAT1); net uptake against HEK-VC vector control cells
- Sequence (P30825 whole entry): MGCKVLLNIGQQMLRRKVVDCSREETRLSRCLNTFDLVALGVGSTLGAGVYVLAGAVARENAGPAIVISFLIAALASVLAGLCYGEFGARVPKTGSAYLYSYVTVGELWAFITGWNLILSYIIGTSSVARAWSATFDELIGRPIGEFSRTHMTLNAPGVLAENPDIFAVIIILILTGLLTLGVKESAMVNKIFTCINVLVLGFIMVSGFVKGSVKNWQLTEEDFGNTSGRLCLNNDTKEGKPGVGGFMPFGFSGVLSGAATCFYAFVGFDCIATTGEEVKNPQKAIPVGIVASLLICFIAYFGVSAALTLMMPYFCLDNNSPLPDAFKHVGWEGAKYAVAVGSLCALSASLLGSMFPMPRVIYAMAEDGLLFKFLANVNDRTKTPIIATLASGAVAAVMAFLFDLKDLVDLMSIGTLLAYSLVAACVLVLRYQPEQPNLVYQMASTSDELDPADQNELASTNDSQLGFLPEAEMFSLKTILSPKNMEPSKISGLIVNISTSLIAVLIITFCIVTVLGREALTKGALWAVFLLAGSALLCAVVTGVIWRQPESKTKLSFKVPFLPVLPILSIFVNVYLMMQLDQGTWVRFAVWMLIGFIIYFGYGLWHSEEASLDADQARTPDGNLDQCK
- measurementDescription: cell-based
- Set-up: species or system HEK-CAT1 (HEK293 stably transfected); Inhibition of net CAT1-mediated [3H]-L-arginine (100 uM) uptake, 5 min, scintillation counting, vector control subtracted
- recordedConditions: HEK293; L-arginine 100 uM as substrate; read-out: % Inhibition of L-arginine uptake at 20 µM
Number in %, nothing else.

Example cases with answers are listed next.
> print(dat)
                                   compound  assayvalue
1  C[C@]12CCC(=O)C=C1CC[C@@H]1[C@@H]2[C@@H](O)C[C@@]2(C)[C@H]1CC[C@]2(O)C(=O)CO [Hydrocortisone]         8.5
2  CN1CCOC(c2ccccc2)c2ccccc2C1 (centres unmarked) [Nefopam]       -17.2
3  CN(C)CCCC1(c2ccc(F)cc2)OCc2cc(C#N)ccc21 (centres unmarked) [Citalopram]       -16.7
4  Cc1ccc(NC(=O)c2ccc(CN3CCN(C)CC3)cc2)cc1Nc1nccc(-c2cccnc2)n1 [Imatinib]        -8.2
5  COc1ccc(Cl)cc1C(=O)NCCc1ccc(S(=O)(=O)NC(=O)NC2CCCCC2)cc1 [Glibenclamide]        13.9
6  COc1cc2nc(N3CCN(C(=O)c4ccco4)CC3)nc(N)c2cc1OC [prazosin]         9.8
7  COc1ccccc1OCCNCC(O)COc1cccc2[nH]c3ccccc3c12 (centres unmarked) [Carvedilol]       -14.1

Now for a further compound.
Prompt: May I ask what inhibition at 20 µM has been recorded for CC1(C)S[C@@H]2[C@H](NC(=O)[C@H](N)c3ccccc3)C(=O)N2[C@H]1C(=O)O [Ampicillin] ?
Response: -2.5

* * *

- testedSystem: CAT1 (cationic amino acid transporter 1, CAT1/SLC7A1) (Homo sapiens)
- Construct: full-length human transporter stably transfected in HEK cells (HEK-CAT1); net uptake against HEK-VC vector control cells
- measurementDescription: cell-based
- Design: species or system HEK-CAT1 (HEK293 stably transfected); Inhibition of net CAT1-mediated [3H]-ADMA (1 uM) uptake, 2.5 min, scintillation counting, vector control subtracted
- recordedConditions: HEK293; ADMA 1 uM as substrate; read-out: % Inhibition of ADMA uptake at 200 µM
metricName: inhibition at 200 µM

compound	metricName	assayValue
COc1cc(Cc2cnc(N)nc2N)cc(OC)c1OC	inhibition at 200 µM	-68.1%
CC(CN(C)C)CN1c2ccccc2CCc2ccccc21 (centres unmarked)	inhibition at 200 µM	-13.4%
Cc1nnc2n1-c1ccc(Cl)cc1C(c1ccccc1)=NC2	inhibition at 200 µM	4.1%
NC12CC3CC(CC(C3)C1)C2	inhibition at 200 µM	-5.7%
CCC(C)(C)C(=O)O[C@H]1C[C@@H](C)C=C2C=C[C@H](C)[C@H](CC[C@@H]3C[C@@H](O)CC(=O)O3)[C@H]21	inhibition at 200 µM	-4.2%

Prompt: Item COc1cc2nc(N3CCN(C(=O)c4ccco4)CC3)nc(N)c2cc1OC has what recorded inhibition at 200 µM?
Response: 5.1%

Prompt: Quick one: inhibition at 200 µM for Cc1ccc(NC(=O)c2ccc(CN3CCN(C)CC3)cc2)cc1Nc1nccc(-c2cccnc2)n1 ?
Response: 20.7%

Prompt: Quick one: inhibition at 200 µM of Nc1nc(NC2CC2)c2ncn([C@H]3C=C[C@@H](CO)C3)c2n1 ?
Response: -78.1%

Prompt: Please report the recorded inhibition at 200 µM for O[C@@H](CNC[C@H](O)[C@H]1CCc2cc(F)ccc2O1)[C@@H]1CCc2cc(F)ccc2O1 (racemic) .
Response: -6.6%

Prompt: What does the data say about its inhibition at 200 µM? Entry: CCCC(CCC)C(=O)O
Response: -47.5%

Prompt: For the compound shown here, Nc1ccn([C@@H]2CS[C@H](CO)O2)c(=O)n1 , give the reported inhibition at 200 µM.
Response: 22.9%

Prompt: What value of inhibition at 200 µM has been recorded for this entry: COc1ccc(CCN(C)CCCC(C#N)(c2ccc(OC)c(OC)c2)C(C)C)cc1OC (centres unmarked)
Response: 44.2%

Prompt: Tell me the measured inhibition at 200 µM of CCOC(=O)[C@H](CCc1ccccc1)N[C@H]1CCc2ccccc2N(CC(=O)O)C1=O , please.
Response: 3.1%

* * *

- testedSystem: CAT1 (cationic amino acid transporter 1, CAT1/SLC7A1) (Homo sapiens, UniProt P30825)
- Construct: full-length human transporter stably transfected in HEK cells (HEK-CAT1); net uptake against HEK-VC vector control cells
- measurementDescription: cell-based
- Set-up: species or system HEK-CAT1 (HEK293 stably transfected); Inhibition of net CAT1-mediated [3H]-L-arginine (100 uM) uptake, 5 min, scintillation counting, vector control subtracted
- recordedConditions: HEK293; L-arginine 100 uM as substrate; read-out: % Inhibition of L-arginine uptake at 200 µM
The reader will find reported inhibition at 200 µM values listed item by item below.
// note: answer is a bare numeric in %

Prompt: Query (molecule): CCc1oc2ccccc2c1C(=O)c1cc(Br)c(O)c(Br)c1 ; field requested: inhibition at 200 µM
Response: -31.3

* * *

- testedSystem: CAT1 (cationic amino acid transporter 1, CAT1/SLC7A1) (Homo sapiens, UniProt P30825)
- Construct: full-length human transporter stably transfected in HEK cells (HEK-CAT1); net uptake against HEK-VC vector control cells
- measurementDescription: cell-based
- Design: species or system HEK-CAT1 (HEK293 stably transfected); Inhibition of net CAT1-mediated [3H]-L-arginine (100 uM) uptake, 5 min, scintillation counting, vector control subtracted
- recordedConditions: HEK293; L-arginine 100 uM as substrate; read-out: % Inhibition of L-arginine uptake at 200 µM
metricName: inhibition at 200 µM (%)
Your answer should be a plain number; it is taken to be in %.

compound	testedSystem	unitDescriptor	inhibition at 200 µM
O=C(O)CCCc1ccc(N(CCCl)CCCl)cc1 [Chlorambucil]	CAT1 (cationic amino acid transporter 1, CAT1/SLC7A1) (Homo sapiens, UniProt P30825)	%	-43.3

Prompt: GET /values?readout=inhibition at 200 µM&item= C[C@H]1O[C@@H](O[C@H]2[C@@H](O)C[C@H](O[C@H]3[C@@H](O)C[C@H](O[C@H]4CC[C@@]5(C)[C@H](CC[C@@H]6[C@@H]5C[C@@H](O)[C@]5(C)[C@@H](C7=CC(=O)OC7)CC[C@]65O)C4)O[C@@H]3C)O[C@@H]2C)C[C@H](O)[C@@H]1O [Digoxin]
Response: -14.9

Prompt: # get_value(readout='inhibition at 200 µM', item= C#C[C@]1(O)CC[C@H]2[C@@H]3CCc4cc(O)ccc4[C@H]3CC[C@@]21C [Ethinylestradiol] )
Response: -10.5

Prompt: Any idea what its inhibition at 200 µM is? The compound is CCN(CC)CCCC(C)Nc1ccnc2cc(Cl)ccc12 (centres unmarked) [Chloroquine]
Response: -11.4

Prompt: Which inhibition at 200 µM value is on record for C[C@]12C=CC(=O)C=C1CC[C@@H]1[C@@H]2C(=O)C[C@@]2(C)[C@H]1CC[C@]2(O)C(=O)CO [Prednisone] ?
Response: 19.1

Prompt: What does the data say about its inhibition at 200 µM? Entry: O=C(O)Cc1ccccc1Nc1c(Cl)cccc1Cl [Diclofenac]
Response: -91.4

Prompt: Data request, read-out inhibition at 200 µM, for CN(C)CCCC1(c2ccc(F)cc2)OCc2cc(C#N)ccc21 (centres unmarked) [Citalopram]
Response: 42.8

Prompt: If you can, please state the reported inhibition at 200 µM value of C=C[C@H]1CN2CC[C@H]1C[C@@H]2[C@@H](O)c1ccnc2ccc(OC)cc12 [Quinidine] .
Response: 2.7

Prompt: Fill in the blank: the reported inhibition at 200 µM of Cc1ncc([N+](=O)[O-])n1CCO [Metronidazole] is ____.
Response: 2.6

Prompt: Given the entry c1c[nH]cn1 [Imidazole] , report its measured inhibition at 200 µM.
Response: -8.5

Prompt: Endpoint output: inhibition at 200 µM of Cc1nnc2n1-c1ccc(Cl)cc1C(c1ccccc1)=NC2 [Alprazolam] . Value?
Response: 8

Prompt: Return reported inhibition at 200 µM; argument: C[C@H](CS)C(=O)N1CCC[C@H]1C(=O)O [Captopril]
Response: -15.1

Prompt: Entry CCCC(CCC)C(=O)O [Valproic acid] : reported inhibition at 200 µM = ?
Response: -3.1

Prompt: # query: inhibition at 200 µM of entry CN(C)CCCN1c2ccccc2CCc2ccccc21 [Imipramine]
Response: 22.6

Prompt: GET /values?readout=inhibition at 200 µM&item= COc1cc2nc(N3CCN(C(=O)c4ccco4)CC3)nc(N)c2cc1OC [prazosin]
Response: 9.9

Prompt: Entry c1ccc([C@H]2CN3CCSC3=N2)cc1 [Levamisole] has what inhibition at 200 µM?
Response: -17.2

Prompt: Reported inhibition at 200 µM, compound OCCN1CCN(CCCN2c3ccccc3C=Cc3ccccc32)CC1 [Opipramol] : ____
Response: 29.2

Prompt: I would be grateful if you could share the reported inhibition at 200 µM for CNC(=C[N+](=O)[O-])NCCSCc1ccc(CN(C)C)o1 [Ranitidine] .
Response: 2.9

Prompt: What measured inhibition at 200 µM goes with COc1ccccc1OCCNCC(O)COc1cccc2[nH]c3ccccc3c12 (centres unmarked) [Carvedilol] ?
Response: 0.2

Prompt: Fill blank: measured inhibition at 200 µM of the compound CO/N=C(\C(=O)N[C@@H]1C(=O)N2C(C(=O)O)=C(COC(N)=O)CS[C@H]12)c1ccco1 [Cefuroxime] is ____.
Response: -9.8
